# Procedure text: AUC in mouse at […], iv
# Type: ADME, organism-based
# Condition details: in vivo
Measure: AUC (ng·h/mL)
The response must be a number in ng·h/mL with no trailing unit.

In: What does the record list as AUC for `C[C@H]1[C@H](NC(=O)/C(=N\OC(C)(C)C(=O)O)c2csc(N)n2)C(=O)N1S(=O)(=O)O` ?
Out: 5000

* * *

# Tested on: Escherichia coli
# Procedure text: Antimicrobial activity against Escherichia coli expressing beta-lactamase KPC-2 by CLSI broth microdilution method
# Assay type: functional
Reported MIC values are given for each entry in this list.
The response must be a number in µg/mL with no trailing unit.

Examples with answers:
Nc1nc(/C(=N/OC2(C(=O)O)CC2)C(=O)N[C@@H]2C(=O)N(S(=O)(=O)O)[C@@H]2Cn2cncn2)cs1 (stereo in doubt) ... 0.25
CC(C)(O/N=C(\C(=O)N[C@@H]1C(=O)N(S(=O)(=O)O)[C@@H]1Cn1cc(CCN)nn1)c1csc(N)n1)C(=O)O (stereo in doubt) ... 2
CC(C)(O/N=C(\C(=O)N[C@@H]1C(=O)N(S(=O)(=O)O)[C@@H]1CN1C[C@@H](CN)OC1=O)c1csc(N)n1)C(=O)O (stereo in doubt) ... 1
CC(C)(O/N=C(\C(=O)N[C@@H]1C(=O)N(S(=O)(=O)O)[C@@H]1CN1C[C@H](CN)OC1=O)c1csc(N)n1)C(=O)O (stereo in doubt) ... 1
C[C@@H](O/N=C(\C(=O)N[C@@H]1C(=O)N(S(=O)(=O)O)[C@@H]1Cn1cncn1)c1csc(N)n1)C(=O)O (stereo in doubt) ... 1

Alright, here's another compound for you.
In: What does the record list as MIC for Cc1nnn(C[C@@H]2[C@H](NC(=O)/C(=N\OC(C)(C)C(=O)O)c3csc(N)n3)C(=O)N2S(=O)(=O)O)n1 (stereo in doubt) ?
Out: 8
